Every entry's value here was drawn from patent US4232035A.

- Test protocol: Peroral toxicity to mammals (rat)
- Particulars: in vivo, po, mortality rate of 50 percent, read-out: A.O. Rat LD50
Quantity name: LD50

| Compound string | Quantity name | Result |
| --- | --- | --- |
| CN(SSC(C)(C)C)C(=O)ON=C1SCCS1 | LD50 | 5.6 mg/kg |
| CN(SSC(C)(C)C)C(=O)ON=C1SC(C)(C)C(=O)N1C | LD50 | 299 mg/kg |

====

- Test system: root-knot nematode (Meloidogyne incognita var. acrita)
- Test protocol: Nematode Test
- Format: in vivo
- Set-up: key: 1: severe galling; equal to untreated control; 2: moderate galling; 3: light galling; 4: very light galling; 5: no galling
- Particulars: 10 ml of 500 parts per million formulation per jar of soil; cucumber indicator crop, approximately three weeks
Quantity name: Nematodes, nematocidal toxicity rating (galling)

| Molecule | Result |
| --- | --- |
| CC1OCSC1=NOC(=O)N(C)SSc1ccccc1 (stereo not drawn) | 2 |
| CN(SSC(C)(C)C)C(=O)ON=C1SCCS1 | 5 |
| CN(SSc1ccccc1)C(=O)ON=C1SC(C)(C)C(=O)N1C | 1 |
| Cc1ccc(SSN(C)C(=O)ON=C2SC(C)(C)C(=O)N2C)cc1 | 1 |
| CN(SSC(C)(C)C)C(=O)ON=C1SC(C)(C)C(=O)N1C | 1 |
| CCCCSSN(C)C(=O)ON=C1SC(C)(C)C(=O)N1C | 5 |
| CC1OCSC1=NOC(=O)N(C)SSC(C)(C)C (stereo not drawn) | 1 |
| CN(SSc1ccc(C(C)(C)C)cc1)C(=O)ON=C1SC(C)(C)C(=O)N1C | 1 |
| CSSN(C)C(=O)ON=C1SCOC1C (stereo not drawn) | 1 |
| CCCCCCCCSSN(C)C(=O)ON=C1SCOC1C (stereo not drawn) | 1 |
| CN(SSc1ccc(C(C)(C)C)cc1)C(=O)ON=C1CSCCS1 | 4 |
| CC(C)SSN(C)C(=O)ON=C1SCOC1C (stereo not drawn) | 1 |
